System: Morningglory
Assay: Preemergence herbicidal activity, morningglory
Type: in vivo, Ipomea lacunosa or Ipomea hederacea
Conditions: Ipomoea, pre-emergence, 0.3 kg/ha, after 17-21 days, read-out: Preemergence herbicidal activity (% control), Morningglory
Everything with activity at 300 g/ha lower than 60% is not satisfied; everything else, including exactly 60%, is satisfied.

Record excerpt, results attached:
- Molecule: "Cn1c(C(F)(F)F)cc(=O)n(-c2ccc(OCc3ccc(Cl)cc3Cl)cc2)c1=O [Compound 6]"
  Class Label: "not satisfied"
- Molecule: "COc1ccc(COc2ccc(-n3c(=O)cc(C(F)(F)F)n(C)c3=O)cc2)cc1 [Compound 44]"
  Class Label: "satisfied"
- Molecule: "Cn1c(C(F)(F)F)cc(=O)n(-c2ccc(OCc3ccc(F)cc3)cc2)c1=O [Compound 5]"
  Class Label: "satisfied"

**Query** Evaluate COc1ccccc1COc1ccc(-n2c(=O)cc(C(F)(F)F)n(C)c2=O)cc1 [Compound 40] : activity at 300 g/ha at minimum 60%?
**Result** satisfied

**Query** Evaluate Cn1c(C(F)(F)F)cc(=O)n(-c2ccc(OCc3c(Cl)cccc3Cl)cc2)c1=O [Compound 7] : activity at 300 g/ha at minimum 60%?
**Result** not satisfied

**Query** Evaluate COc1cccc(COc2ccc(-n3c(=O)cc(C(F)(F)F)n(C)c3=O)cc2)c1 [Compound 8] : activity at 300 g/ha at minimum 60%?
**Result** satisfied

**Query** Evaluate Cn1c(C(F)(F)F)cc(=O)n(-c2ccc(OCc3ccc(Cl)cc3)cc2)c1=O [Compound 4] : activity at 300 g/ha at minimum 60%?
**Result** satisfied

---

Test system: Chickweed
Test: Preemergence herbicidal activity, chickweed
Format: in vivo
Conditions: Stellaria media, pre-emergence, 0.3 kg/ha, after 17-21 days, read-out: Preemergence herbicidal activity (% control), Chickweed
Everything with activity at 300 g/ha lower than 10% is No; everything else, including exactly 10%, is Yes.

- Compound: "Cn1c(C(F)(F)F)cc(=O)n(-c2ccc(OCc3cc(Cl)cc(Cl)c3)cc2)c1=O"
  Class Label: "No"

**Query** Evaluate `Cn1c(C(F)(F)F)cc(=O)n(-c2ccc(OCc3ccc(Cl)c(Cl)c3)cc2)c1=O` : activity at 300 g/ha at minimum 10%?
**Result** Yes

**Query** Evaluate `Cn1c(C(F)(F)F)cc(=O)n(-c2ccc(OCc3ccc(Cl)cc3)cc2F)c1=O` : activity at 300 g/ha at minimum 10%?
**Result** Yes

**Query** Evaluate `COc1cccc(COc2ccc(-n3c(=O)cc(C(F)(F)F)n(C)c3=O)cc2)c1` : activity at 300 g/ha at minimum 10%?
**Result** Yes

**Query** Evaluate `Cn1c(C(F)(F)F)cc(=O)n(-c2ccc(OCc3ccc(F)cc3)cc2F)c1=O` : activity at 300 g/ha at minimum 10%?
**Result** Yes

---

Each entry below carries its recorded activity at 300 g/ha.
Test system: Morningglory
Experiment: Preemergence herbicidal activity, morningglory
Type: in vivo, Ipomea lacunosa or Ipomea hederacea
Settings: Ipomoea, pre-emergence, 0.3 kg/ha, after 17-21 days, read-out: Preemergence herbicidal activity (% control), Morningglory
Report only the number, with the unit % understood.

Answered examples (2):
- Molecule: "Cn1c(C(F)(F)F)cc(=O)n(-c2ccc(OCc3ccccc3)cc2)c1=O [Compound 1]"
  Unit Tag: "%"
  activity at 300 g/ha: 100
- Molecule: "Cn1c(C(F)(F)F)cc(=O)n(-c2ccc(OCc3cc(Cl)cc(Cl)c3)cc2)c1=O [Compound 43]"
  Unit Tag: "%"
  activity at 300 g/ha: 0

Please examine the following record next.
**Query** For the molecule Cn1c(C(F)(F)F)cc(=O)n(-c2ccc(OCc3cccc(Cl)c3Cl)cc2)c1=O [Compound 42] , what activity at 300 g/ha is on record?
**Result** 70
